FYI, the data here is from ChEMBL document CHEMBL1201862.

target: Fatty acid synthase (Homo sapiens, UniProt P49327); test: FAS thioesterase domain inhibitors, dose response, biochemical, kinetic fluorescence intensity (AID 624326); assay type: functional;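 note: rate of fluorescence rise from hydrolysis of a fluorogenic O-methyl fluorescein ester substrate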
Sequence (P49327 whole entry, the tested form may be a part): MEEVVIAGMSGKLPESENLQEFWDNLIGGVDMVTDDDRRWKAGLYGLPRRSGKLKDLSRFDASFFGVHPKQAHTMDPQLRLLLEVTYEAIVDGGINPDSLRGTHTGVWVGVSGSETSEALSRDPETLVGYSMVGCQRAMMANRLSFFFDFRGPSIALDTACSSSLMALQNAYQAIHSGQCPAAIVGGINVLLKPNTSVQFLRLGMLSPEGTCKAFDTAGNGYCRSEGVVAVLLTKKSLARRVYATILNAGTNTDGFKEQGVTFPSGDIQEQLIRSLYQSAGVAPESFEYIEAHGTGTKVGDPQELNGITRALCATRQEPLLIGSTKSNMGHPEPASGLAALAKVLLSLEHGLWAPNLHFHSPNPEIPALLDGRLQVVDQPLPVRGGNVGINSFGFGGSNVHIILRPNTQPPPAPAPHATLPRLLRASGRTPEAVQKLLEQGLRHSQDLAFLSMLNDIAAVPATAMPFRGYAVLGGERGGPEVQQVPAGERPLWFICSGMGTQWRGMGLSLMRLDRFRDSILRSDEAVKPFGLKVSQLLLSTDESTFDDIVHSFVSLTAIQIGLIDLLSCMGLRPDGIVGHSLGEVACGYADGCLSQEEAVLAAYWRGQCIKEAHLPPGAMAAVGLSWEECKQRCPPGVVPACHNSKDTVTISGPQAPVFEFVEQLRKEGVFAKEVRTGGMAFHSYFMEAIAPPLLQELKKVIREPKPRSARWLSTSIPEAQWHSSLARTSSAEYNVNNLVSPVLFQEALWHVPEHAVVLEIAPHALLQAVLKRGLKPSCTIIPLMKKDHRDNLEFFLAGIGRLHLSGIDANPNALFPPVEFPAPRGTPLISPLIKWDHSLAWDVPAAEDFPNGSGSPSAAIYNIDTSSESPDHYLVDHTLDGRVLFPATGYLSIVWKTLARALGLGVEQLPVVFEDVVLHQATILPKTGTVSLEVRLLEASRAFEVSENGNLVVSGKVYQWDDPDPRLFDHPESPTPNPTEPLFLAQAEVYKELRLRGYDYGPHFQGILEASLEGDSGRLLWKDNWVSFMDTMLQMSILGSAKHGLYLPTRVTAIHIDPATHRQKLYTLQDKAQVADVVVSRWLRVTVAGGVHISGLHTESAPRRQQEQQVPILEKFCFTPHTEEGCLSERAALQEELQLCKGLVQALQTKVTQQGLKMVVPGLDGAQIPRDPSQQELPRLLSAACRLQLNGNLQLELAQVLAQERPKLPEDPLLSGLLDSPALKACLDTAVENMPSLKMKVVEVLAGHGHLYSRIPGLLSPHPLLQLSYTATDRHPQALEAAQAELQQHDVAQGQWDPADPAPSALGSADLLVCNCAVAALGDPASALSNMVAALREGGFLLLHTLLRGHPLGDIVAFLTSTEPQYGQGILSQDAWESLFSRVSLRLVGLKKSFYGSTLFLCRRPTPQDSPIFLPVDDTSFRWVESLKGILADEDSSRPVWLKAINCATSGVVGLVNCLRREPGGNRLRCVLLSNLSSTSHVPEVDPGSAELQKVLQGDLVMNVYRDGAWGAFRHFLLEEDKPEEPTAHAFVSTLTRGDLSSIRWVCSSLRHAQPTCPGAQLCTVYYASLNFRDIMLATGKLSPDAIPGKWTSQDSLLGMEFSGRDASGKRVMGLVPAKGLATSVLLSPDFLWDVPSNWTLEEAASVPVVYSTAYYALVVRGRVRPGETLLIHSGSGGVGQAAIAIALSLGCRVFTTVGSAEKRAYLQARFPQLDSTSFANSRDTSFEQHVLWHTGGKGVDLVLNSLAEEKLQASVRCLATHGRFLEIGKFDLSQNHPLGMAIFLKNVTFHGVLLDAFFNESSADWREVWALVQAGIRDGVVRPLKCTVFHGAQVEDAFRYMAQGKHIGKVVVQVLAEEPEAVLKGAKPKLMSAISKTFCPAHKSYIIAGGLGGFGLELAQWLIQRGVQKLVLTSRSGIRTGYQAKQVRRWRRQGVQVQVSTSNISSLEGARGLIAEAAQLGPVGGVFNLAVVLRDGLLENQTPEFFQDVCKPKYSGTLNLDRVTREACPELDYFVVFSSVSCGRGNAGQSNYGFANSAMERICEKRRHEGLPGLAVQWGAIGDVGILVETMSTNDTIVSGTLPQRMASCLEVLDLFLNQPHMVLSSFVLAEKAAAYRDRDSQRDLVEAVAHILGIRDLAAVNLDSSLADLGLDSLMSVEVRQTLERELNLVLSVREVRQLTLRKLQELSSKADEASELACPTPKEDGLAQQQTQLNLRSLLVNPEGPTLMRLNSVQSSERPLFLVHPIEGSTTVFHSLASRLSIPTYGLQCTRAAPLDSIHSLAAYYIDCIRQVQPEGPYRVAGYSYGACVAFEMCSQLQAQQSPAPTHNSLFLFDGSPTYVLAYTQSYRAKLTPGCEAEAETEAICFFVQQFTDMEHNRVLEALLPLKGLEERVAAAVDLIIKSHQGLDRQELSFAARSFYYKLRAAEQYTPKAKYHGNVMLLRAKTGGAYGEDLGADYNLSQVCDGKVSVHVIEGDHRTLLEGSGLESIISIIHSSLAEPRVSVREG
Activity calls are given as the source filed them. Cut-off read from the data, not from the text of the source: active = IC50 of 20 µM or less and inactive = more.
quantity measured: IC50

CC1(C)CC[C@]2(C(=O)n3ccnc3)CC[C@]3(C)[C@H](C(=O)C=C4[C@@]5(C)C=C(C#N)C(=O)C(C)(C)[C@@H]5CC[C@]43C)[C@@H]2C1 | 1.77 µM (active)
O=C(CCNc1ccc(Br)cc1)c1cccc([N+](=O)[O-])c1 | 7.64 µM (active)
N#CC1(NC(=O)COC(=O)c2cc([N+](=O)[O-])ccc2N2CCOCC2)CCCCC1 | 2.59 µM (active)
Cc1ccc(S(=O)(=O)N2[C@@H](c3ccc(C(C)(C)C)cc3)C(C(=O)O)=CC[C@H]2c2ccc(Cl)cc2)cc1 | 11.3 µM (active)
O=C(C[C@H]1C[C@H](C(=O)N2CCOCC2)[C@@]2(CCC3CCCC3)c3[nH]c4ccc(Cl)cc4c3CCN2C1=O)NCCN1CCOCC1 | 2.26 µM (active)
CCCc1cc(C(=O)Nc2cccc([N+](=O)[O-])c2)cs1 | 8.66 µM (active)
Cc1ccc(COC(=O)c2cc([N+](=O)[O-])ccc2N2CCOCC2)cc1 | 9.01 µM (active)
O=C(Cn1nc(-c2ccco2)ccc1=O)Nc1ccc(Cl)c(Cl)c1 | 12.4 µM (active)
